# Tested on: Saccharomyces cerevisiae
# methodNotes: protein stability index of tFT-peptide fusion (C-terminal peptide) (PSI (0-1 scale)); higher = more stable (slower turnover)
# measurementConditions: genetic background: wild type; temperature: 30 C
Rule: protein stability index of 0.7 or more gives y; anything lower gives n.

> print(dat)
    sequencerecord  discretelabel
 1    GAGLPSGLRIGL              n
 2    FSVPLMLTFPRD              y
 3    AHRSIFSASSLL              n
 4    GRVRIFDCVVRL              y
 5    VVGGAWTEAGGG              n
 6    AAKGSVRLFHVF              n
 7    WGRRGGVARGRA              y
 8    PPLPPPPSPALL              y
 9    SGGSKAGGVVRI              n
10    HFIDFVVVSFSI              n
11    ADSWACSWLLFR              n
12    IGSDFQLFLEGC              n
13    HSSSASPPISSF              n
14    PPAPSPPVPPQL              y
15    CLIGYFPYRLVL              n
16    WPRSFSIILLSR              n
17    MVRWGLGRVYGC              y
18    VRCLGAVEDCLS              n
19    PRSCPPFLPSLP              y
20    LMWPTSHLPQPQ              y
21    PRFLGWGGCLWV              y
22    DWTVSYLWVTAL              n
23    SATDARPPMKSP              y
24    VNHVVRFFFSSH              n
25    HIVYCSSEQIKC              n
26    WRCYCFLGLDEG              n
27    FFLLGRGVCLGA              n
28    ILLFISGPPMSF              y
29    SLGSISSATLLA              n
30    SRALSPRAPFGN              y
31    RIWRLLIIIIKK              n
32    ARLPPPRPLPPP              y
33    SCPQSSLASVYA              n
34    DLLPGAGRDSRL              y
35    VLLSTLHLRGFG              n
36    PRPPYHAPSTFP              n
37    AEIINRVKSRSK              y
38    ISPCLVRLWYRI              n
39    LPPPRSLPPILS              n
40    VTPVQFMFRLHF              n
41    RGTYRYNFSQKK              n
42    GAMLAGRQGGGL              n
43    PPSPSPPPYHFP              n
44    PPPSPPLPRHLA              y
45    EVGQYVEWSCLL              n
46    RNIKIGKYMKRI              y
47    SLRLAHSPPDEV              y
48    NEQGTIIKRYKK              y
49    LAVGAAGVLFGG              y
50    PPSPHPSLPPPR              n
51    IFRSCCLLGLCL              n
52    VFRFAPILHSHR              n
53    CFWLLSSLLLFL              n
54    VGFLGFFVVEGV              n
55    EGGFGSVLGGRG              y

* * *

Reported protein stability index values for a set of sequences
# System: Saccharomyces cerevisiae
# methodNotes: protein stability index of tFT-peptide fusion (C-terminal peptide) (PSI (0-1 scale)); higher = more stable (slower turnover)
# measurementConditions: genetic background: wild type; temperature: 30 C
observedProperty: protein stability index

> print(dat)
    sequencerecord  result
 1    ALGQWGCAELHG   0.709
 2    TFVGWIVWLCGS   0.331
 3    GVICALPPVVGR   0.685
 4    VDRLDAACCIFC   0.601
 5    YPPPPPLAPPRP   0.747
 6    QGTCSQSIEAHF   0.706
 7    RRVFPLIIVLLF   0.202
 8    PSPRPPPPPPSA   0.705
 9    SLVCGFAVGGFW   0.659
10    SARECSVRTPHN   0.711
11    VTSSIQNRCTSC   0.706
12    PFFLAFPPSPPT   0.723
13    PFPRPAFPPYFP   0.746
14    PVGDWPRGKGAD   0.684
15    SANSGVRHMHFW   0.729
16    GAVYHGGMASVR   0.746
17    RVWSMYCSEANG   0.666
18    VDGLRASRFVGS     0.7
19    FHLPLSSHDPLL   0.747
20    WFRMTFLSPLHD   0.797
21    GRVSAVEFWFCF   0.615
22    PLPPRPHPPPPY   0.695
23    VWGGGLLVGAGW   0.669
24    LLFSNRKVGQQF   0.708
25    FFIVGACAYVFA   0.319
26    PPSFLLVCPRPP    0.69
27    PGLPGHLPPLPL    0.62
28    EDLVREKRKCEK   0.694
29    SFSPSIHLLSTL   0.677
30    LQHSLNRKEIET   0.688

* * *

Reported protein stability index values for a set of sequences
# Test system: Saccharomyces cerevisiae
# methodNotes: protein stability index of tFT-peptide fusion (C-terminal peptide) (PSI (0-1 scale)); higher = more stable (slower turnover)
# measurementConditions: genetic background: cdc34-1; temperature: 37 C
observedProperty: protein stability index

> print(dat)
    sequencerecord         observedproperty  numericvalue
 1    FVFCTCSFFFLW  protein stability index         0.511
 2    LCARVCITFNIV  protein stability index         0.517
 3    HCLGWCFSRLSS  protein stability index         0.654
 4    LWAVGVATDWGG  protein stability index         0.706
 5    SVVYVIYCGGIL  protein stability index         0.446
 6    PWLLHTPLSLVF  protein stability index         0.321
 7    PVWLFLVRAIKG  protein stability index         0.431
 8    TPYIFVLACLHV  protein stability index         0.395
 9    TYNVMFSPWRKA  protein stability index         0.604
10    YHFSLFFPLSLP  protein stability index         0.685
11    FVSGRFLFFFVL  protein stability index          0.52
12    SGRATSSRTSEP  protein stability index          0.67
13    GPFGVGALVCCM  protein stability index         0.462
14    CTESVYIIRFML  protein stability index         0.638
15    GPTLLVSRIAVI  protein stability index         0.506

* * *

# Tested on: Saccharomyces cerevisiae
# methodNotes: protein stability index of tFT-peptide fusion (C-terminal peptide) (PSI (0-1 scale)); higher = more stable (slower turnover)
# measurementConditions: genetic background: wild type; temperature: 30 C
observedProperty: protein stability index

> print(dat)
                             sequencerecord         observedproperty  numericvalue
 1    NTLLSPSRKDNS [MVB12 C-terminal 12 aa]  protein stability index         0.698
 2   RKVVFERMETLE [MRPS16 C-terminal 12 aa]  protein stability index         0.683
 3  VFNNISLNFYIQ [YLL020C C-terminal 12 aa]  protein stability index         0.692
 4  EFVVQSLRSRNQ [YFR018C C-terminal 12 aa]  protein stability index         0.703
 5    PFNRNVSDKLKK [VAC14 C-terminal 12 aa]  protein stability index         0.713
 6  HLPKATSLPYEK [YER097W C-terminal 12 aa]  protein stability index         0.679
 7     GNSGGSNNSSWW [DED1 C-terminal 12 aa]  protein stability index         0.697
 8  SFTDVLGQEQFI [YLR252W C-terminal 12 aa]  protein stability index         0.699
 9     GLTLIGRQSDSI [RAD7 C-terminal 12 aa]  protein stability index          0.71
10     IFHELKRQNSKN [RGD2 C-terminal 12 aa]  protein stability index         0.717
11     LYKPSVWDLFEY [FZF1 C-terminal 12 aa]  protein stability index         0.682
12     EEQRNHLKDLYG [SLU7 C-terminal 12 aa]  protein stability index         0.702
13     RARPRTANRQHM [CCT2 C-terminal 12 aa]  protein stability index         0.699
